Test system: HCC38 (Breast Carcinoma)
Test: Bliss excess, mean over the matrix (fraction); higher = more synergy
QUANTITY_NAME: Bliss excess
Numbers only.

MOLECULE | EXPERIMENTAL_VALUE
Cc1c2c(nn1C)CSCc1cc(n(C)n1)CSc1cc(c3ccccc3c1)OCCCc1c(C(=O)O)n(C)c3c-2c(Cl)ccc13 [AZD5991] + CC(=O)O[C@H]1C(=O)[C@@]2(C)[C@H]([C@H](OC(=O)c3ccccc3)[C@]3(O)C[C@H](OC(=O)[C@H](O)[C@@H](NC(=O)c4ccccc4)c4ccccc4)C(C)=C1C3(C)C)[C@]1(OC(C)=O)CO[C@@H]1C[C@@H]2O [Paclitaxel] (first compound max 1 µM, 7x7, partner max 3 µM) | -0.0632
C[C@@H](Nc1cc(F)cc(F)c1)c1cc(C(=O)N(C)C)cc2c(=O)cc(N3CCOCC3)oc12 [AZD8186] + C1CN(CCC1(C(=O)N[C@@H](CCO)C2=CC=C(C=C2)Cl)N)C3=NC=NC4=C3C=CN4 [AZD5363] (first compound max 10 µM, 7x7, partner max 10 µM) | -0.0395

List reported Bliss excess for each of these molecules:
1. Cc1c2c(nn1C)CSCc1cc(n(C)n1)CSc1cc(c3ccccc3c1)OCCCc1c(C(=O)O)n(C)c3c-2c(Cl)ccc13 [AZD5991] + C1CN(CCC1(C(=O)N[C@@H](CCO)C2=CC=C(C=C2)Cl)N)C3=NC=NC4=C3C=CN4 [Capivasertib] (first compound max 1 µM, 7x7, partner max 3 µM)
2. C=CCn1c(=O)c2cnc(Nc3ccc(N4CCN(C)CC4)cc3)nc2n1-c1cccc(C(C)(C)O)n1 [AZD1775] + C[C@@H]1COCCN1C2=NC(=NC(=C2)C3(CC3)[S@](=N)(=O)C)C4=C5C=CNC5=NC=C4 [AZD6738] (first compound max 1 µM, partner max 10 µM)
3. Cc1c2c(nn1C)CSCc1cc(n(C)n1)CSc1cc(c3ccccc3c1)OCCCc1c(C(=O)O)n(C)c3c-2c(Cl)ccc13 [AZD5991] + CS(=O)(=O)CCNCc1ccc(-c2ccc3ncnc(Nc4ccc(OCc5cccc(F)c5)c(Cl)c4)c3c2)o1 [Lapatinib] (first compound max 1 µM, 7x7, partner max 10 µM)
4. CN(CCO)CC[C@H](CSc1ccccc1)Nc1ccc(S(=O)(=O)NC(=O)c2ccc(N3CCC([C@@H](O)c4ccccc4-c4ccc(Cl)cc4)CC3)cc2)cc1S(=O)(=O)C(F)(F)F [AZD4320] + C[C@@H](Nc1cc(F)cc(F)c1)c1cc(C(=O)N(C)C)cc2c(=O)cc(N3CCOCC3)oc12 [AZD8186] (first compound max 1 µM, 7x7, partner max 3 µM)
5. O=C(c1cc(Cc2n[nH]c(=O)c3ccccc23)ccc1F)N1CCN(C(=O)C2CC2)CC1 [Olaparib] + CN(CC[C@H](CSC1=CC=CC=C1)NC2=C(C=C(C=C2)S(=O)(=O)NC(=O)C3=CC=C(C=C3)N4CCC(CC4)[C@H](C5=CC=CC=C5C6=CC=C(C=C6)Cl)O)S(=O)(=O)C(F)(F)F)CCO [AZD4320] (first compound max 10 µM, 7x7, partner max 1 µM)
6. Cc1c2c(nn1C)CSCc1cc(n(C)n1)CSc1cc(c3ccccc3c1)OCCCc1c(C(=O)O)n(C)c3c-2c(Cl)ccc13 [AZD5991] + Nc1ccn([C@@H]2O[C@H](CO)[C@@H](O)C2(F)F)c(=O)n1 [Gemcitabine] (first compound max 1 µM, 7x7, partner max 0.3 µM)
7. Cc1cc2ncnn2cc1Nc1ncc2c(n1)n(C1CCOCC1)c(=O)n2C [AZD7648] + COc1cc([C@@H]2c3cc4c(cc3[C@@H](O[C@@H]3O[C@@H]5CO[C@@H](C)O[C@H]5[C@H](O)[C@H]3O)[C@H]3COC(=O)[C@H]23)OCO4)cc(OC)c1O [Etoposide] (first compound max 10 µM, 7x7, partner max 10 µM)
8. NC1(C(=O)N[C@@H](CCO)c2ccc(Cl)cc2)CCN(c2ncnc3[nH]ccc23)CC1 [Capivasertib] + CC(C)n1c(=O)n(C)c2cnc3cc(F)c(-c4ccc(OCCCN5CCCCC5)nc4)cc3c21 [AZD1390] (first compound max 10 µM, 7x7, partner max 0.3 µM)

0.0062
-0.0805
-0.0638
-0.0028
-0.0541
-0.0432
0.0373
-0.0314

List reported Bliss excess for each of these molecules:
1. COc1cccc(OCCCN)c1-c1cc(Nc2cnc(C#N)cn2)n[nH]1 [Prexasertib] + C[C@@H]1COCCN1C2=NC(=NC(=C2)C3(CC3)[S@](=N)(=O)C)C4=C5C=CNC5=NC=C4 [AZD6738] (first compound max 1 µM, 7x7, partner max 10 µM)
2. Cc1c2c(nn1C)CSCc1cc(n(C)n1)CSc1cc(c3ccccc3c1)OCCCc1c(C(=O)O)n(C)c3c-2c(Cl)ccc13 [AZD5991] + Cc1cc2ncnn2cc1Nc1ncc2c(n1)n(C1CCOCC1)c(=O)n2C [AZD7648] (first compound max 1 µM, 7x7, partner max 10 µM)
3. C=CCn1c(=O)c2cnc(Nc3ccc(N4CCN(C)CC4)cc3)nc2n1-c1cccc(C(C)(C)O)n1 [AZD1775] + CCc1c2c(nc3ccc(O)cc13)-c1cc3c(c(=O)n1C2)COC(=O)[C@]3(O)CC [SN-38] (first compound max 1 µM, partner max 0.3 µM)

1: -0.0029; 2: -0.0418; 3: -0.0765

* * *

System: BICR78 (Oral Cavity Carcinoma)
Assay: Bliss excess, mean over the matrix (fraction); higher = more synergy
QUANTITY_NAME: Bliss excess
Give bare numbers.

COMPOUND | TESTED_SYSTEM | Bliss excess
Cc1cc2ncnn2cc1Nc1ncc2c(n1)n(C1CCOCC1)c(=O)n2C [AZD7648] + C[C@@H]1COCCN1C2=NC(=NC(=C2)C3(CC3)[S@](=N)(=O)C)C4=C5C=CNC5=NC=C4 [AZD6738] (first compound max 10 µM, 7x7, partner max 10 µM) | BICR78 (Oral Cavity Carcinoma) | -0.0018
C[C@@H](Oc1cc(-c2cnn(C3CCNCC3)c2)cnc1N)c1c(Cl)ccc(F)c1Cl [Crizotinib] + Cn1cnc2c(F)c(Nc3ccc(Br)cc3Cl)c(C(=O)NOCCO)cc21 [Selumetinib] (first compound max 10 µM, 7x7, partner max 10 µM) | BICR78 (Oral Cavity Carcinoma) | 0.0006

List reported Bliss excess for each of these compounds:
1. C[C@@H](Oc1cc(-c2cnn(C3CCNCC3)c2)cnc1N)c1c(Cl)ccc(F)c1Cl [Crizotinib] + CC1=C(C(=CC=C1)Cl)NC(=O)C2=CN=C(S2)NC3=CC(=NC(=N3)C)N4CCN(CC4)CCO [Dasatinib] (first compound max 10 µM, 7x7, partner max 2 µM)
2. CC1(C)CCC(CN2CCN(c3ccc(C(=O)NS(=O)(=O)c4ccc(NCC5CCOCC5)c([N+](=O)[O-])c4)c(Oc4cnc5[nH]ccc5c4)c3)CC2)=C(c2ccc(Cl)cc2)C1 [Venetoclax] + C[C@@H]1COCCN1C2=NC(=NC(=C2)C3(CC3)[S@](=N)(=O)C)C4=C5C=CNC5=NC=C4 [AZD6738] (first compound max 1 µM, 7x7, partner max 10 µM)
3. COc1cccc(OCCCN)c1-c1cc(Nc2cnc(C#N)cn2)n[nH]1 [Prexasertib] + Cc1cc2ncnn2cc1Nc1ncc2c(n1)n(C1CCOCC1)c(=O)n2C [AZD7648] (first compound max 1 µM, 7x7, partner max 10 µM)

[0.0142, -0.0397, -0.0379]

* * *

Can you tell me combination Emax for the items I'm about to list?
System: P31-FUJ (Acute Myeloid Leukemia)
Assay: combination Emax (second highest fraction inhibited in the dose matrix, 72 h); higher = more inhibition; extreme values may be limits of the assay
One number for each entry.

MOLECULE | combination Emax
Cn1cnc2c(F)c(Nc3ccc(Br)cc3Cl)c(C(=O)NOCCO)cc21 [Selumetinib] + C[C@@H]1COCCN1C2=NC(=NC(=C2)C3(CC3)[S@](=N)(=O)C)C4=C5C=CNC5=NC=C4 [AZD6738] (first compound max 10 µM, 7x7, partner max 10 µM) | 0.948

List reported combination Emax for each of these molecules:
1. CC1(C)CCC(CN2CCN(c3ccc(C(=O)NS(=O)(=O)c4ccc(NCC5CCOCC5)c([N+](=O)[O-])c4)c(Oc4cnc5[nH]ccc5c4)c3)CC2)=C(c2ccc(Cl)cc2)C1 [Venetoclax] + COc1cc(Nc2ncc3c(n2)-c2ccc(Cl)cc2C(c2c(F)cccc2OC)=NC3)ccc1C(=O)O [Alisertib] (first compound max 1 µM, 7x7, partner max 10 µM)
2. N#Cc1cnc(Nc2cc(NC[C@H]3CNCCO3)c(C(F)(F)F)cn2)cn1 [SRA737] + C=CCn1c(=O)c2cnc(Nc3ccc(N4CCN(C)CC4)cc3)nc2n1-c1cccc(C(C)(C)O)n1 [AZD1775] (first compound max 10 µM, partner max 1 µM)

[0.906, 0.973]
